The measured values listed here are drawn from PubChem BioAssay (NCI).

tested on: 786-0 renal; test: NCI-60 one-dose screen, 48 h (100 = growth as untreated, 0 = no growth, -100 = all killed); conditions: 10 µM unless noted
Compounds without any hit were thinned out: in the full panel of roughly 83,000, 20% have a hit.
Kindly supply the reported growth values for the records listed here.
Answers are plain numbers, in %.

Solved cases below.
Cc1cc(C)c(C#N)c(Sc2nc(C)c([N+](=O)[O-])c(C)c2C#N)n1	103
CC(/C=N/NC(N)=S)Cc1ccc(C(C)C)cc1 (centres undefined)	51
O=C(O)c1ccc2c(c1)C(=O)c1ccccc1C2=O	103

Next, consider the following molecule.
Task: Suppose we examine the molecule OC(CSc1ccccc1)CN1CCN(c2ccc(Cl)cc2)CC1 (centres undefined) ; what growth value has been reported?
Output: 95.3

----------
tested on: HOP-92 NSCLC; assay: NCI-60 one-dose screen, 48 h (100 = growth as untreated, 0 = no growth, -100 = all killed); conditions: 10 µM unless noted
The panel holds about 83,000 compounds, 20% with a hit somewhere; the sample as a whole holds those more often. *1 amine or outer side, *2 acyl side, *3 side chain or, on linkers, in order; H or OH if unused. Where a SMILES comes first, the peptide text is derived from it. [ ]: non-standard residue; d: D form. The star is where a group is joined. X5 = CCC(=O)CC1CC(C)CC(C(=O)[*:2])N1[*:1]; X4 = CCCCCCCCC(C)C(=O)*; Aib = CC(C)(N)C(=O)O; X6 = CC(CN(C)CCO)N*
Readout Label: growth (%)
Numbers only, in %.

Solved cases below.
CC(C)Nc1ccc(Nc2ccc(NC(C)C)cc2)cc1	72.6
S=c1[nH]c2cc(Cl)ccc2s1	68.4
COC(=O)[C@]1(C)CCC[C@]2(C)c3ccc(C(C)C)cc3C(=O)[C@@H](Br)[C@@H]12	82.6
O=C(O)c1cc2c(s1)C(=O)c1sccc1C2=O	54.4

Next, consider the following molecule.
Task: Suppose we examine the molecule CCCCCCCCC(C)C(=O)N1CCCC1C(=O)N1C(CC(=O)CC)CC(C)CC1C(=O)NC(C)C(=O)NC(C)(C)C(=O)NC(C)(C)C(=O)NC(C(=O)NC(C)C(=O)NC(C)(C)C(=O)NC(C)(C)C(=O)NC(C)CN(C)CCO)C(C)CC (stereo not given) (X4-P[X5]A[Aib][Aib]IA[Aib][Aib]-X6; configuration not given here) ; what growth value has been reported?
Output: -23.8

----------
tested on: UACC-257 melanoma; assay: NCI-60 one-dose screen, 48 h; conditions: 10 µM unless noted
The panel holds about 83,000 compounds, 20% with a hit somewhere; the sample as a whole holds those more often. Active and inactive are the calls of the source. Rule for the calls: active = growth percent below 10; inactive = the rest.
Parameter call: string, one of active, inactive

CCCCCCCCCCCC[N+]1(CCCCCCCCCCCC)CCCC(C)C1 (configuration not stated)	active
C[n+]1ccccc1C[n+]1ccccc1	inactive
CN(C)c1ccc2cc3c(cc2c1)Oc1ccccc1N3.[Cl][Zn][Cl]	inactive
O=C1c2ccccc2C(=O)c2c(O)c(Cl)cc(O)c21	inactive
S=C(S)OCN1CCOCC1	inactive

Task: Write down the call the test reported for this molecule. Item: OC(CSc1ccccc1)CN1CCN(c2ccc(Cl)cc2)CC1 (configuration not stated)
Output: inactive

Task: Field entry: CC1=CC(=O)C=CC1(C)C(Cl)(Cl)Cl (configuration not stated)
Output: inactive

Task: Field entry: "Oc1ccc(Cl)cc1Cc1cc(Cl)ccc1O"
Output: inactive

Task: Field entry: "N#C/C(=N\Nc1ccc(Cl)cc1)C(=O)C1CC1"
Output: active

Task: Field entry: CC1(C)OCC(COC(c2ccccc2)(c2ccccc2)c2ccccc2)O1 (configuration not stated)
Output: inactive

Task: Field entry: "Cc1ccccc1NC(=O)Cc1csc2[n+]1C(=O)/C(=C/c1ccc([N+](=O)[O-])cc1)S2"
Output: inactive

Task: Field entry: Nc1nc2ncc(CNc3ccc(C(=O)NC(CCC(=O)NC(CCC(=O)NC(CCC(=O)NC(CCC(=O)NC(CCC(=O)O)C(=O)O)C(=O)O)C(=O)O)C(=O)O)C(=O)O)cc3)nc2c(=O)[nH]1 (configuration not stated)
Output: inactive

Task: Field entry: "CN(C)c1ccc(C(=C2C=CC(=[N+](C)C)C=C2)c2ccc(N(C)C)cc2)cc1"
Output: active
